Measured solubility values are reported for all entries that follow.
# assay-name: Solubility in phosphate buffered saline pH 7.4 at room temperature
# Format: physicochemical
# reported-conditions: phosphate buffered saline, aqueous buffer, thermodynamic from solid; PBS pH 7.4, room temperature, solution remained clear; read-out: final concentration achieved (maximum solubility not reached)

solubility reported for this compound "Cc1nnc(NCc2ccc(C[C@H](N)C(=O)O)nc2)nn1" : ≥ 342 mM

"Cc1nnc(Nc2ccc(C[C@H](N)C(=O)O)cn2)nn1" has a reported solubility of ≥ 647 mM

---

# assay-name: Solubility in phosphate buffered saline pH 7.4 at room temperature
# Format: physicochemical
# reported-conditions: phosphate buffered saline, aqueous buffer, thermodynamic from solid; PBS pH 7.4, room temperature, clarity by visual inspection; read-out: solubility
# Description: This example describes the solubility of three non-natural amino acids comprising tetrazine functional groups in phosphate buffered saline solution, with a pH of 7.4 (PBS). […] A suspension of AB 4091 was formed by adding 1.8 mg of AB 4091 to 5 mL of PBS. […] Clarity of the solution was determined by visual inspection. […]
parameter-measured: solubility

The compound listed as Cc1nnc(Nc2ccc(CC(N)C(=O)O)cc2)nn1 (stereo not shown) [AB 4091, reference compound] shows solubility equal to ~215 µM
